Field: half-life at 0.1 µM. Provide a value for each of the compounds that follow.
Test summary: Degradation half-life in human liver microsomes at 0.1 uM by LC-MS/MS analysis
Assay type: ADME

Compound: CNc1nc(NC2CC2)c2sc(-c3ccc(C(F)(F)F)cc3)cc2n1
half-life at 0.1 µM: 1.15 h

Compound: CN(C)CCCNc1nc(N2CCNCC2)nc2cc(-c3ccc(C(F)(F)F)cc3)sc12
half-life at 0.1 µM: > 1.67 h

Compound: Nc1nc(N2CCC(N)CC2)c2sc(-c3ccc(C(F)(F)F)cc3)cc2n1
half-life at 0.1 µM: > 2.5 h

Compound: CNc1nc(NCCCN2CCOCC2)c2sc(-c3ccc(C(F)(F)F)cc3)cc2n1
half-life at 0.1 µM: 0.398 h

Compound: Nc1nc(NC2CCNCC2)c2sc(-c3ccc(C(F)(F)F)cc3)cc2n1
half-life at 0.1 µM: > 2.5 h

# per-item lookup of half-life at 0.1 µM; items listed below
1. CNc1nc(NC(C)(C)C)c2sc(-c3ccc(C(F)(F)F)cc3)cc2n1
2. Nc1nc(NC2CCNC2)c2sc(-c3ccc(C(F)(F)F)cc3)cc2n1 (centres undefined)
3. COc1nc(NCCCN(C)C)c2sc(-c3ccc(C(F)(F)F)cc3)cc2n1
4. CN(C)CCCNc1nc(N)nc2cc(-c3ccc(C(F)(F)F)cc3)sc12

-- reply
2.07 h
> 2.5 h
> 1.67 h
1.73 h

###

Test summary: Solubility of the compound in 0.01 M HCl at pH 2
Type: physicochemical
Property label: log10(solubility) (log10 of the value in µg/mL)
Please interpret these as log10 of solubility where solubility is in µg/mL.

Please review the following examples before continuing.
Molecule: CN1CCC(Nc2nc(N)nc3cc(-c4ccc(C(F)(F)F)cc4)sc23)CC1
log10(solubility): 2.17
//
Molecule: CN(C)CCCNc1nc(N)nc2cc(-c3ccc(C(F)(F)F)cc3)sc12
log10(solubility): 2.32
//
Molecule: CNc1nc(NCCCN2CCOCC2)c2sc(-c3ccc(C(F)(F)F)cc3)cc2n1
log10(solubility): 2.29

Provide reported log10(solubility) for each item, in the same order as listed.
1. Nc1nc(N2CCC(N)CC2)c2sc(-c3ccc(C(F)(F)F)cc3)cc2n1
2. CN(C)CCCNc1nc(N2CCOCC2)nc2cc(-c3ccc(C(F)(F)F)cc3)sc12
3. CN(C)CCCNc1nc(N2CCNCC2)nc2cc(-c3ccc(C(F)(F)F)cc3)sc12
4. CNc1nc(NC(C)(C)C)c2sc(-c3ccc(C(F)(F)F)cc3)cc2n1
5. CS(=O)(=O)c1ccc(-c2nc(N3CCNCC3)nc3cc(-c4ccc(C(F)(F)F)cc4)sc23)cc1

-- reply
2.13
2.32
2.30
0.20
2.24

###

System: Plasmodium berghei
Test summary: Antimalarial activity against GFP-transfected Plasmodium berghei ANKA infected in NMRI mouse assessed as mean survival time at 50 mg/kg, po qd for 4 days by flow cytometry analysis
Format: functional
For each record, write down the corresponding MSD.
One number for each entry, in days.

Structure notation: CNc1nc(N2CCC(N)CC2)c2sc(-c3ccc(C(F)(F)F)cc3)cc2n1
Reported result: 7
//
Structure notation: CNc1nc(NC2CCNCC2)c2sc(-c3ccc(C(F)(F)F)cc3)cc2n1
Reported result: 12
//
Structure notation: Nc1nc(N2CCC(N)CC2)c2sc(-c3ccc(C(F)(F)F)cc3)cc2n1
Reported result: 26

Moving on to the next compound.
-- ask Give the measured MSD of Nc1nc(NC2CCNCC2)c2sc(-c3ccc(C(F)(F)F)cc3)cc2n1 .
-- reply 7

###

Tgt: Voltage-gated inwardly rectifying potassium channel KCNH2 (Homo sapiens)
Sequence (Q12809 whole entry): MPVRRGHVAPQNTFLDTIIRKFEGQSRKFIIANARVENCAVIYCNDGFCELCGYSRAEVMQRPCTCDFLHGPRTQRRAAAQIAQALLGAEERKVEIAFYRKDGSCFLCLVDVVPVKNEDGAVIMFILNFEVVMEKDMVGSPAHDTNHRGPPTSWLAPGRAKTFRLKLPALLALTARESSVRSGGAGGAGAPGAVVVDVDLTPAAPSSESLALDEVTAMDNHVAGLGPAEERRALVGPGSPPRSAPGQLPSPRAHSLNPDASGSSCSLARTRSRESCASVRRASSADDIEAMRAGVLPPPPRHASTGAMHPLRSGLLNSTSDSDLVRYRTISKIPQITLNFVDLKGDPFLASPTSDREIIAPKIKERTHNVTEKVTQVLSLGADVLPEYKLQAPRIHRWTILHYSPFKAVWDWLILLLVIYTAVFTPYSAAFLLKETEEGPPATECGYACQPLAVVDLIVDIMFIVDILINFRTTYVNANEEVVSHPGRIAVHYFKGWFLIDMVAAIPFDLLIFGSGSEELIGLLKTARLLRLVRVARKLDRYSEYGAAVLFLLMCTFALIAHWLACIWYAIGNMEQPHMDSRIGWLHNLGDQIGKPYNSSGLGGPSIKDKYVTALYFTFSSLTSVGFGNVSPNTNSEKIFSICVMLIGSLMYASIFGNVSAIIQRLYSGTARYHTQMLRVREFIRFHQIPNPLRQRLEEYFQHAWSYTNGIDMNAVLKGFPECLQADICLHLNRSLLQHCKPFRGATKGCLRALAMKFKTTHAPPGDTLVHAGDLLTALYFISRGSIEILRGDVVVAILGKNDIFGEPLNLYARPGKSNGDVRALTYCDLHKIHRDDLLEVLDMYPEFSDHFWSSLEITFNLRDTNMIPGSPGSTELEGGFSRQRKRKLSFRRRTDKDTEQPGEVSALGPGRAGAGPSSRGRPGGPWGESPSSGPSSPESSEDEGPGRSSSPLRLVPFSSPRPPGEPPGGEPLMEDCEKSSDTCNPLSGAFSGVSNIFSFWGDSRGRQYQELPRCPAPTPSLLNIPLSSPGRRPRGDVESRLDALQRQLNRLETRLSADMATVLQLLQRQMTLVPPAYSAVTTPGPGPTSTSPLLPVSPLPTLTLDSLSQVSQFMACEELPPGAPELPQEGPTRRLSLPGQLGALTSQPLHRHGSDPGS
Test summary: Inhibition of human ERG expressed in CHO cells by patch clamp electrophysiology assay
Property label: pIC50
One number for each entry, as −log10 of the molar value.

// worked examples, pIC50 included
Compound: Nc1nc(N2CCC(N)CC2)c2sc(-c3ccc(C(F)(F)F)cc3)cc2n1
pIC50: 5.21
//
Compound: Nc1nc(NC2CCNC2)c2sc(-c3ccc(C(F)(F)F)cc3)cc2n1 (centres undefined)
pIC50: 5.62

Kindly review the next compound as well.
-- ask Query (compound): Nc1nc(NC2CCOCC2)c2sc(-c3ccc(C(F)(F)F)cc3)cc2n1 ; field requested: pIC50
-- reply 6.15

###

Test summary: Partition coefficient, log D of the compound at pH 7.4 by HPLC chromatographic method
Assay type: physicochemical
Run parameters: octanol/water
Property label: chromatographic logD
Numbers only.

Structure notation: Nc1nc(NC2CCNCC2)c2sc(-c3ccc(C(F)(F)F)cc3)cc2n1
chromatographic logD: 2.4
--
Structure notation: CNc1nc(N)c2sc(-c3ccc(C(F)(F)F)cc3)cc2n1
chromatographic logD: 3.4

Now for another entry.
-- ask What chromatographic logD value was documented for this molecule, Nc1nc(N2CCC(N)CC2)c2sc(-c3ccc(C(F)(F)F)cc3)cc2n1 ?
-- reply 2.4

###

Test summary: Solubility of the compound in phosphate buffer at pH 6.5
Assay type: physicochemical
Property label: solubility

Molecule: Nc1nc(NC2CCNCC2)c2sc(-c3ccc(C(F)(F)F)cc3)cc2n1
solubility: 168 µg/mL
--
Molecule: CNc1nc(OCCCN(C)C)c2sc(-c3ccc(C(F)(F)F)cc3)cc2n1
solubility: 174 µg/mL
--
Molecule: CS(=O)(=O)c1ccc(-c2nc(N3CCNCC3)nc3cc(-c4ccc(C(F)(F)F)cc4)sc23)cc1
solubility: < 5 µg/mL

Hello, I would appreciate it if you could give solubility for each entry below.
1. Nc1nc(NC2CCNC2)c2sc(-c3ccc(C(F)(F)F)cc3)cc2n1 (stereo not given)
2. CN(C)CCCNc1nc(N2CCOCC2)nc2cc(-c3ccc(C(F)(F)F)cc3)sc12
3. CN(C)CCCNc1nc(N)nc2cc(-c3ccc(C(F)(F)F)cc3)sc12

-- reply
1: 155 µg/mL; 2: < 5 µg/mL; 3: 148 µg/mL

Hi there! I need solubility for each item below, if you can.
1. CNc1nc(NC2CCOCC2)c2sc(-c3ccc(C(F)(F)F)cc3)cc2n1
2. CN(C)CCCNc1ncnc2cc(-c3ccc(C(F)(F)F)cc3)sc12
3. CN(C)CCCNc1nc(N(C)C)nc2cc(-c3ccc(C(F)(F)F)cc3)sc12
4. CNc1nc(NCCN2CCNCC2)c2sc(-c3ccc(C(F)(F)F)cc3)cc2n1

-- reply
< 5 µg/mL
205 µg/mL
168 µg/mL
115 µg/mL

###

Assignment: determine reported microsomal CLint at 0.1 µM for the given molecules.
Test summary: Intrinsic clearance in human liver microsomes assessed per mg of protein at 0.1 uM by LC-MS/MS analysis
Assay type: ADME
Run parameters: read-out: CLH

Example entries begin here.
Molecule: CN(C)CCCNc1nc(N2CCNCC2)nc2cc(-c3ccc(C(F)(F)F)cc3)sc12
microsomal CLint at 0.1 µM: < 17 µL/min/mg

Molecule: Nc1nc(N2CCC(N)CC2)c2sc(-c3ccc(C(F)(F)F)cc3)cc2n1
microsomal CLint at 0.1 µM: < 11.6 µL/min/mg

Molecule: COc1nc(NCCCN(C)C)c2sc(-c3ccc(C(F)(F)F)cc3)cc2n1
microsomal CLint at 0.1 µM: < 17 µL/min/mg

For every record below, what is its microsomal CLint at 0.1 µM?
1. Nc1nc(NC2CCNCC2)c2sc(-c3ccc(C(F)(F)F)cc3)cc2n1
2. Nc1nc(NC2CCNC2)c2sc(-c3ccc(C(F)(F)F)cc3)cc2n1 (stereo not given)

-- reply
1: < 11.6 µL/min/mg; 2: < 11.6 µL/min/mg

###

Test summary: Solubility of the compound in 0.01 M HCl at pH 2
Format: physicochemical
Binary call on solubility: t from 200 µg/mL upward, f beneath that.

Molecule: Nc1nc(NC2CCOCC2)c2sc(-c3ccc(C(F)(F)F)cc3)cc2n1
Label: f
//
Molecule: CNc1nc(NC2CCOCC2)c2sc(-c3ccc(C(F)(F)F)cc3)cc2n1
Label: f
//
Molecule: CNc1nc(N2CCC(N)CC2)c2sc(-c3ccc(C(F)(F)F)cc3)cc2n1
Label: t
//
Molecule: CNc1nc(NC2CC2)c2sc(-c3ccc(C(F)(F)F)cc3)cc2n1
Label: f
//
Molecule: COc1nc(NCCCN(C)C)c2sc(-c3ccc(C(F)(F)F)cc3)cc2n1
Label: t

-- ask Reported solubility reaches at least 200 µg/mL for CNc1nc(Nc2cccc(C(N)=O)c2)c2sc(-c3ccc(C(F)(F)F)cc3)cc2n1 ?
-- reply f

-- ask Tell me whether solubility is at least 200 µg/mL here: CNc1nc(NC2CCNCC2)c2sc(-c3ccc(C(F)(F)F)cc3)cc2n1
-- reply t

-- ask Has CN(C)CCCNc1ncnc2cc(-c3ccc(C(F)(F)F)cc3)sc12 a recorded solubility greater than or equal to 200 µg/mL?
-- reply t

-- ask Say whether Nc1nc(NC2CCCNC2)c2sc(-c3ccc(C(F)(F)F)cc3)cc2n1 (stereo not drawn) shows solubility of 200 µg/mL or more.
-- reply f

-- ask Form field: solubility at least 200 µg/mL? Entry: Nc1nc(NC2CCNC2)c2sc(-c3ccc(C(F)(F)F)cc3)cc2n1 (stereo not drawn)
-- reply f

-- ask Check this molecule for solubility at or above 200 µg/mL: CN(C)CCCNc1nc(NCc2ccccc2)nc2cc(-c3ccc(C(F)(F)F)cc3)sc12
-- reply t

-- ask Threshold query (solubility >= 200 µg/mL) on Nc1nc(NC2CCNCC2)c2sc(-c3ccc(C(F)(F)F)cc3)cc2n1
-- reply f

-- ask Would you say CNc1nc(NCC(F)(F)F)c2sc(-c3ccc(C(F)(F)F)cc3)cc2n1 shows solubility at minimum 200 µg/mL?
-- reply f

-- ask Threshold query (solubility >= 200 µg/mL) on CNc1nc(OCCCN(C)C)c2sc(-c3ccc(C(F)(F)F)cc3)cc2n1
-- reply f

-- ask Item CNc1nc(NCCN2CCOCC2)c2sc(-c3ccc(C(F)(F)F)cc3)cc2n1 with solubility of 200 µg/mL or above?
-- reply t

-- ask Please tell me: is the molecule CN(C)CCCNc1nc(N(C)C)nc2cc(-c3ccc(C(F)(F)F)cc3)sc12 at or over 200 µg/mL in terms of solubility?
-- reply t
